FYI, the data here is from paper PMC9268166.

Test: IAM chromatography (IAM-HPLC), IAM.PC.DD2 column
Format: physicochemical
Settings: IAM chromatography, pH 7.4; from mean of three retention times
endpointLabel: CHI (CHIIAM), Table S2

The cases that follow already have their CHI (CHIIAM), Table S2 on record.
Cc1cc(S(=O)(=O)Nc2nncc(-c3cccc(F)c3)n2)c(SCc2ccccc2)cc1Cl : 37.1
COc1ccc(-c2cnnc(NS(=O)(=O)c3cc(C)c(Cl)cc3SCc3ccc(C(F)(F)F)cc3)n2)cc1 : 37.2
Cc1cc(S(=O)(=O)Nc2nnc(-c3ccccc3)c(=O)[nH]2)c(SCc2ccc(C(F)(F)F)cc2)cc1Cl : 36.7
Cc1cc(C)nc(NS(=O)(=O)c2ccc(-n3cccc3)cc2)n1 : 24.3
CC(=O)NS(=O)(=O)c1cc(C)c(Cl)cc1SCc1cccc2ccccc12 : 30.6
Cc1ccc2cccnc2c1NS(=O)(=O)c1ccc(-n2cccc2)cc1 : 42.0

1 = Cc1ccnc(NS(=O)(=O)c2ccc(-n3cccc3)cc2)n1
2 = Cc1cc(S(=O)(=O)Nc2nnc(-c3ccccc3)c(=O)[nH]2)c(SCc2cccc3ccccc23)cc1Cl
Given the two records 1 and 2 , choose the one whose CHI (CHIIAM), Table S2 value is lower. Answer by quoting the chosen item's label.
1
